# study_target: full length PDK1 (Homo sapiens, UniProt O15530)
# Construct: Full-length human 3-Phosphoinositide Dependent protein Kinase-1; made in house; host or cells: baculovirus / Sf9 insect cells
# Sequence (O15530 1-556): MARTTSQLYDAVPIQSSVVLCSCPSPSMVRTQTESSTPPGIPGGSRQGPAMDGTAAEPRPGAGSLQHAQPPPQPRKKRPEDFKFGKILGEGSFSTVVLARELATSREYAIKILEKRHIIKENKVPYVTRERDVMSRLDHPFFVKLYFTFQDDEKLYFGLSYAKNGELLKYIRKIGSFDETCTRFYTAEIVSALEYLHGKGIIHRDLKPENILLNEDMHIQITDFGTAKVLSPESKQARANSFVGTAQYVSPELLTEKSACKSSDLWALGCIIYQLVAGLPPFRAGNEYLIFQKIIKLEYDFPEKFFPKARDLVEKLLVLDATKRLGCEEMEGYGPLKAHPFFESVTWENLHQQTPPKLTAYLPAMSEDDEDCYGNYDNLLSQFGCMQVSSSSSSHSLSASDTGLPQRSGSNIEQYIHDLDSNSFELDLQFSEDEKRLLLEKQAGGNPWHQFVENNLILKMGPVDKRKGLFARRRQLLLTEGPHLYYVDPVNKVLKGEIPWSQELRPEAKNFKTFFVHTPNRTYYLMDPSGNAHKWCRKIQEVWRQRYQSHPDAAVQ
# assay_comment: PDK1 enzyme assays (substrate phosphorylation: LEADseeker scintillation proximity, TR-FRET, PDKtide)
# Format: biochemical
# test_settings: in at least one experimental run, read-out: IC50 against full length PDK1
Give measured IC50 for each item. Keep answers brief.

Q: Form field: reported IC50 of CC1CCC(NC(=O)OC2CCCC2)CN1c1cc(-c2ccc3c(N)n[nH]c3c2)nc(N)n1 (stereo not drawn)
Result: < 50 nM

Q: Form field: reported IC50 of CC(C)OC(=O)N[C@@H]1CCCN(c2cc(-c3ccc4c(N)n[nH]c4c3)nc(N)n2)C1
Result: < 50 nM

Q: Form field: reported IC50 of C[C@@H]1C[C@@H](N(C)C(=O)OC(C)(C)C)CN(c2cc(-c3ccc4c(N)n[nH]c4c3)nc(N)n2)C1
Result: < 50 nM

Q: Form field: reported IC50 of Nc1nc(NC2(Cc3ccccc3)CC2)cc(-c2ccc3c(N)n[nH]c3c2)n1
Result: < 100 nM

Q: Form field: reported IC50 of CC[C@@H]1CO[C@H](C(=O)NC2CCCCC2)CN1c1cc(-c2ccc3c(N)n[nH]c3c2)nc(N)n1
Result: < 20 nM

Q: Form field: reported IC50 of CNc1nc(-c2ccc3c(C)n[nH]c3c2)cc(N2C[C@@H](C(=O)NC3CCCCC3)CC[C@H]2C)n1
Result: < 20 nM

Q: Form field: reported IC50 of CCCNc1cc(-c2ccc3c(N)n[nH]c3c2)nc(N)n1
Result: < 100 nM

Q: Form field: reported IC50 of Nc1nc(NCc2ccccc2)cc(-c2ccc3c(N)n[nH]c3c2)n1
Result: < 100 nM

Q: Form field: reported IC50 of CNc1nc(-c2cc(OC)c3c(N)n[nH]c3c2)cc(N2CCC[C@@H](NC(=O)OC(C)(C)C)C2)n1
Result: < 50 nM

Q: Form field: reported IC50 of Nc1nc(-c2ccc3c(N)n[nH]c3c2)cc(N2CCC[C@@H](N3CCOC3=O)C2)n1
Result: < 50 nM

Q: Form field: reported IC50 of C[C@@H]1CC[C@H](C(=O)NCCc2ccccc2)CN1c1cc(-c2ccc3c(N)n[nH]c3c2)nc(N)n1
Result: < 20 nM

Q: Form field: reported IC50 of CCOc1cc(-c2cc(N3CCOC[C@H]3CC)nc(NC)n2)cc2[nH]nc(N)c12
Result: < 150 nM

Q: Form field: reported IC50 of Nc1nc(NCC2CCCCC2)cc(-c2ccc3c(N)n[nH]c3c2)n1
Result: < 100 nM

Q: Form field: reported IC50 of CC[C@@H]1COCCN1c1cc(-c2cc(NC3CCCC3)c3c(N)n[nH]c3c2)nc(NC)n1
Result: < 150 nM

Q: Form field: reported IC50 of COc1cc(-c2cc(N3CCOC[C@H]3C)nc(N)n2)cc2[nH]nc(N)c12
Result: < 150 nM

Q: Form field: reported IC50 of C[C@@H]1CC[C@H](C(=O)NC2CCCC2)CN1c1cc(-c2ccc3c(N)n[nH]c3c2)nc(N)n1
Result: < 20 nM

Q: Form field: reported IC50 of Nc1nc(-c2ccc3c(N)n[nH]c3c2)cc(N2CCC[C@@H](NC(=O)OC3CCC3)C2)n1
Result: < 50 nM

Q: Form field: reported IC50 of Nc1nc(NC2CC2)cc(-c2ccc3c(N)n[nH]c3c2)n1
Result: < 100 nM
